// values below are reported Kd
target: UniProt P62937; assay: CYPA-compound binary complex formation by SPR; conditions: read-out: CYPA Binding Affinity
Sequence (P62937 whole entry): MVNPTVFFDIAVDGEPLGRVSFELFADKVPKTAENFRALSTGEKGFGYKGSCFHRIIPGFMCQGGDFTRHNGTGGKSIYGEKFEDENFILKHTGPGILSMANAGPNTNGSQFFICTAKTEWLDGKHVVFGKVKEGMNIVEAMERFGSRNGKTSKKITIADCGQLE

[
  {
    "Compound": "C=CC(=O)N1CCC(C(=O)N(C)C(C(=O)NC2Cc3cc(O)cc(c3)-c3ccc4c(c3)N(CC(C)COC(=O)C3CCCN(N3)C2=O)CC4(C)C(C)=O)C(C)C)C1 (stereo not drawn) [Compound 391]",
    "Property measured": "Kd",
    "Reported result": "≤ 5 µM"
  },
  {
    "Compound": "CC(C)C(C(=O)NC1Cc2cc(O)cc(c2)-c2ccc3c(C(C)(C)C#N)cn(c3c2)CC(C)(C)COC(=O)C2CCCN(N2)C1=O)N(C)C(=O)C1CCN(C(=O)CCl)C1 (stereo not drawn) [Compound 33]",
    "Property measured": "Kd",
    "Reported result": "5 to 15 µM"
  }
]

Now let's try a different one.
*Q* Recorded Kd for CC1CCn2cnc3ccc(cc32)-c2cc(O)cc(c2)CC(NC(=O)C(C(C)C)N(C)C(=O)C2CN(C(=O)CCl)C2)C(=O)N2CCCC(N2)C(=O)O1 (mixture of isomers) [Compound 140] , please?
*A* > 15 µM
